System: EKVX NSCLC
Assay: NCI-60 one-dose screen, 48 h (100 = growth as untreated, 0 = no growth, -100 = all killed)
Conditions: 10 µM unless noted
About 83,000 compounds went through this panel and 20% of them were active in at least one assay; those are over-represented in the sample as a whole.
Class (by growth) -- lower level (below 70%), middle level (70% to below 90%), upper level (90% or more)

Task item: Form field 'band' for `COc1cc(/C=N/NC(=O)CCN2c3ccccc3Sc3ccccc32)cc(OC)c1OC`
Reply: middle level

Task item: Which bin, given its growth, does Nc1ccccc1SC(CC(=O)c1ccccc1)c1ccc([N+](=O)[O-])cc1 (centres undefined) occupy?
Reply: upper level

Task item: Hi there! Could you help me figure out the category for C=C(CNCCc1ccc(O)cc1)[C@@H]1CC[C@]2(CO)CC[C@]3(C)[C@H](CC[C@@H]4[C@@]5(C)CCC(NCCc6ccc(O)cc6)C(C)(C)[C@@H]5CC[C@]43C)[C@@H]12 (some centres undefined) please?
Reply: lower level

Task item: Form: Item = `O=C(NCCCN1CCCCC1)c1ccc(-c2nc3ccc4[nH]ncc4c3c3c2CCCC3)cc1` ; Class = ?
Reply: lower level

Task item: Class (by measured growth) for `COc1cc(-c2nn(-c3cccc(NC(=O)CCN4CCN(C)CC4)c3)cc2-c2ccncc2)ccc1Cl`
Reply: lower level

Task item: Hi, small favor: classify `N#Cc1cc(-c2ccnc(Nc3ccc(NC(=O)CCl)cc3)n2)ccc1N1CCCC1` by its growth when you get a moment.
Reply: lower level

Task item: Textbook exercise: identify the category of the compound given here, `Cc1ccc(-c2nc(SCC(=O)c3ccc(C#N)cc3)[nH]c(=O)c2C#N)cc1` , according to its measured value.
Reply: upper level

Task item: Which category fits this record: `Cc1[nH]c(C(=O)Nc2nc3ccc(NC(=O)CCN)cc3s2)c(Cl)c1Cl`
Reply: middle level

Task item: Form: Item = Nc1nc(N)c2c(n1)NC(c1cccc(Nc3ccnc4cc(C(F)(F)F)ccc34)c1)CC(c1ccc(F)cc1)=N2 (centres undefined) ; Class = ?
Reply: lower level

Task item: Class (by measured growth) for `CCOC(=O)C(=CCC(C)C)C(=O)OCC`
Reply: upper level

Task item: Input `Cc1nc(-n2[nH]c(=O)ccc2=O)sc1N=Nc1ccccc1` ; output its category
Reply: upper level

Task item: Lab note: which band did `COc1cc(CNC(=O)CCCC/C=C/C(C)C)ccc1OCc1cn(-c2ccc([N+](=O)[O-])cc2)nn1` land in?
Reply: middle level

Task item: Kindly identify the class of `COc1ccc(-c2cc(-c3cc(OC)c(OC)c(OC)c3)c(C#N)c(=O)n2CCCCC(=O)O)cc1` .
Reply: upper level

Task item: In plain terms, what class is Cc1cnc(C(=O)NNc2nc3sc4c(c3c(=O)[nH]2)C(C)CCC4)cn1 (centres undefined) ?
Reply: lower level

Task item: Lab note: sort Nc1nc(N)c2c(n1)NC(c1ccc(Cl)cc1)CC(c1cccc(Nc3ccncc3)c1)=N2 (centres undefined) into the matching growth band.
Reply: lower level
